system: K562; assay: Cytotoxicity against human K562 cells after 72 hrs; format: functional, cell-based; settings: K562, 72 h
Listing: IC50 of selected compounds
attribute-measured: IC50 (µM)

- C=C(c1cc(OC)c(OC)c(OC)c1)c1ccc(OC)c(O)c1O: 0.75
- COc1ccc(/C=C\c2cc(OC)c(OC)c(OC)c2)cc1O: 0.0036
- C=C(c1ccc(OC)c(O)c1)c1cc(OC)c(OC)c(OC)c1: 0.005
- C=C(c1ccc(OC)c(O)c1)c1cc(O)c(OC)c(OC)c1: 0.052
- C=C(c1ccc(OC)c(O)c1)c1cc(OC)c2c(c1)OCO2: 0.038
- COc1ccc(C(=O)c2cc(OC)c(OC)c(OC)c2)cc1O: 0.041
- COc1cc2c(c(OC)c1OC)-c1ccc(OC)c(=O)cc1[C@@H](NC(C)=O)CC2: 0.029
- C=C(c1ccc(OC)c(OC)c1)c1cc(O)c(OC)c(OC)c1: 3.1
